Molecular target: B-Raf kinase (Homo sapiens)
Construct: GST (N); purchased Sigma
Assay: Biochemical Assay for B-Raf (coupled pyruvate kinase/lactate dehydrogenase assay)
Settings: Table 4; read-out: BRAF IC50
pIC50: −log10 of the molar value.
Listed here: items and their measured pIC50.
measurement_label: pIC50

# molecule, measurement_label, value
records = [
    ("Cc1ccc(NC(=O)Nc2cn(C)nc2C(F)(F)F)cc1-c1cc(OCCO)nc(N2CCOCC2)c1 [reference compound]", "pIC50", "5.00 to 6.00"),
    ("Cc1ccc(NC(=O)Nc2cnn(CC(F)(F)F)c2)cc1-c1cc(OCCO)nc(N2CCOCC2)c1 [reference compound]", "pIC50", "5.00 to 6.00"),
    ("CC(=O)Nc1cc(-c2cc(-c3cc(NC(=O)NCCC4(C)CC4)c(F)cc3C)ccn2)ccn1 [reference compound]", "pIC50", "> 7.00"),
    ("Cc1cc(F)c(NC(=O)NCCC(C)(C)C)cc1-c1cc(OCCO)nc(N2CCOCC2)c1 [reference compound]", "pIC50", "> 7.00"),
]

----------
Biological target: B-Raf kinase (Homo sapiens, UniProt P15056)
Construct: GST (N); purchased Sigma
Sequence (P15056 416-766): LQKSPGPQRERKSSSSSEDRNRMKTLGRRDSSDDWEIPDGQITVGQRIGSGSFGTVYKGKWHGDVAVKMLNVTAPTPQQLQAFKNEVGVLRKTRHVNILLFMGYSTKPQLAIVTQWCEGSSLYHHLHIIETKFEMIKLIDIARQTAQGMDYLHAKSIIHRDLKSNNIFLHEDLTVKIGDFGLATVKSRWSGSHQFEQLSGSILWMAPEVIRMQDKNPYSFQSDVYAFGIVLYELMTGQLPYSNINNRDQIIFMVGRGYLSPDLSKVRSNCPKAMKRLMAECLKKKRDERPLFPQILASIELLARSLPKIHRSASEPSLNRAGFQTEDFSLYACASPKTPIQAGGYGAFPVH
Test: Biochemical Assay for B-Raf (coupled pyruvate kinase/lactate dehydrogenase assay)
Conditions: Table 1, inhibition of biochemical activity; read-out: BRAF
pIC50: −log10 of the molar value.
measurement_label: pIC50

# cpd_smiles, value
records = [
    ("Cc1ccc(NC(=O)Nc2ccc(C(F)(F)F)nc2)cc1-c1cc(N2CCOCC2)nc(N2CCN(C)CC2)c1", "6.00 to 6.30"),
    ("Cc1ccc(NC(=O)Nc2ccc(C(F)(F)F)nc2)cc1-c1cc(OC[C@@H](C)O)nc(N2CCOCC2)c1", "> 7.00"),
    ("Cc1ccc(NC(=O)Nc2ccc(C(F)(F)F)nc2)cc1-c1cc(OCCO)nc(-c2cn[nH]c2)c1", "> 7.00"),
    ("Cc1ccc(NC(=O)Nc2ccc(C)c(-c3cc(OCCO)nc(N4CCOCC4)c3)c2)cn1", "6.30 to 7.00"),
    ("CNc1cc(-c2cc(-c3cc(NC(=O)Nc4ccc(C(F)(F)F)nc4)ccc3C)cc(OCCO)n2)ccn1", "6.30 to 7.00"),
    ("Cc1ccc(NC(=O)Nc2ccc(C(F)(F)F)nc2)cc1-c1cc(OCC2COC2)nc(N2CCOCC2)c1", "6.30 to 7.00"),
    ("Cc1ccc(NC(=O)Nc2ccc(C(F)(F)F)nc2)cc1-c1cc(-c2cnn(C)c2)nc(N2CCOCC2)c1", "> 7.00"),
]

----------
Target: B-Raf kinase (Homo sapiens, UniProt P15056)
Construct: GST (N); purchased Sigma
Test: Biochemical Assay for B-Raf (coupled pyruvate kinase/lactate dehydrogenase assay)
Conditions: Table 1, inhibition of biochemical activity; read-out: BRAF
Listed here: items and their measured IC50.

# cpd_smiles, IC50
records = [
    ("CC(=O)Nc1cc(-c2cc(-c3cc(NC(=O)Nc4ccc(C(F)(F)F)nc4)cnc3C)ccn2)ccn1", "< 100 nM"),
    ("Cc1ccc(NC(=O)Nc2ccc(C(F)(F)F)nc2)cc1-c1cc(N2CCOCC2)nc(N2CCOCC2)c1", "< 100 nM"),
    ("Cc1ccc(NC(=O)Nc2ccc(C(F)(F)F)nc2)cc1-c1cc(OC2CCNCC2)nc(N2CCOCC2)c1", "100 to 500 nM"),
    ("CC(=O)Nc1cc(-c2cc(-c3cc(NC(=O)Nc4ccc(C(F)(F)F)nc4)ccc3C)cc(=O)n2C)ccn1", "< 100 nM"),
    ("Cc1cc(F)c(NC(=O)Nc2ccc(C(F)(F)F)nc2)cc1-c1cc(OCCN(C)C)nc(N2CCOCC2)c1", "500 to 1000 nM"),
    ("Cc1ccc(NC(=O)Nc2cc(C(F)(F)F)cnn2)cc1-c1ccnc(-c2ccnc(NC(=O)C3CC3)c2)c1", "< 100 nM"),
    ("Cc1ncc(NC(=O)Nc2ccc(C(F)(F)F)nc2)cc1-c1cc(OCCO)nc(N2CCOCC2)c1", "1000 to 10000 nM"),
    ("Cc1ccc(NC(=O)Nc2ccc(C(F)(F)F)nc2)cc1-c1ccnc(-c2ccnc(NC(=O)CN(C)C)c2)c1", "< 100 nM"),
    ("CNc1cc(-c2cc(-c3cc(NC(=O)Nc4ccc(C(F)(F)F)nc4)ccc3C)ccn2)ccn1", "100 to 500 nM"),
    ("COCC(=O)Nc1cc(-c2cncc(-c3cc(NC(=O)Nc4ccc(C(F)(F)F)nc4)ccc3C)n2)ccn1", "< 100 nM"),
    ("Cc1ccc(NC(=O)Nc2cnc(C(F)(F)F)nc2)cc1-c1cc(OCCO)nc(N2CCOCC2)c1", "100 to 500 nM"),
    ("Cc1ccc(NC(=O)Nc2cccnc2)cc1-c1cc(OCCO)nc(N2CCOCC2)c1", "500 to 1000 nM"),
    ("Cc1ccc(NC(=O)Nc2ccc(C(F)(F)F)nc2)cc1-c1cc(OC[C@H](C)O)nc(N2CCOCC2)c1", "100 to 500 nM"),
    ("COCC(=O)Nc1cc(-c2cc(-c3cc(NC(=O)Nc4ccc(C(F)(F)F)nc4)ccc3C)cn(C)c2=O)ccn1", "100 to 500 nM"),
    ("CNC(=O)c1cc(-c2cc(-c3cc(NC(=O)Nc4ccc(C(F)(F)F)nc4)ccc3C)ccn2)ccn1", "100 to 500 nM"),
]
